Task for the reader: assign each of the following molecules its reported Papp B→A at 2 h, 10 μM.
- protocol_details: Caco-2 permeability
- Assay type: in vitro ADME
- reported_conditions: human, basolateral to apical, 10 μM, 2 hours, read-out: Permeability, Mean, Caco-2 B-A Perm
# output: bare number, implied unit ×10⁻⁶ cm/s

// field: Papp B→A at 2 h, 10 μM; key: CC[C@H](O)[C@@H](C)[C@H]1O[C@@H]1C[C@@](C)(O)/C=C/C=C(\C)[C@H]1OC(=O)C[C@H](O)CC[C@@](C)(O)[C@@H](OC(=O)N2CCNCC2)/C=C/[C@@H]1C [D1] ; value = 0.3

// field: Papp B→A at 2 h, 10 μM; key: CC[C@H](O)[C@@H](C)[C@H]1O[C@@H]1C[C@@](C)(O)/C=C/C=C(\C)[C@H]1OC(=O)C[C@H](O)CC[C@@](C)(OC(C)=O)[C@@H](OC(=O)N2CCNCC2)/C=C/[C@@H]1C [D2] ; value = 0.1
